Reported EC50 by item:
Test system: HBV viral production from HepAD38 cells
test_summary: Activity of test compounds on viral production from HepAD38 cells (viral load by qPCR of HBV core sequence in supernatant)
Type: cell-based
experimental_context: Hepatitis B virus, 120 h, 5 days incubation, HBV DNA in supernatant by qPCR, top concentration 10 μM, read-out: Viral Load EC50 Activity range
measurement_kind: EC50

[
  {
    "molecule": "COc1ccc(-c2cnc([C@H]3C[C@@H](C(=O)Nc4ccc(F)c(Cl)c4)N(C)S(=O)(=O)N3)s2)cc1",
    "observed_result": "< 1000 nM"
  },
  {
    "molecule": "O=C(Nc1ccc(F)c(Cl)c1)[C@H]1C[C@@H](c2nccs2)NS(=O)(=O)N1CCO",
    "observed_result": "> 5000 nM"
  },
  {
    "molecule": "CN1[C@H](C(=O)Nc2ccc(F)c(Cl)c2)C[C@H](c2ccc(-c3cccnc3)s2)NS1(=O)=O",
    "observed_result": "< 1000 nM"
  },
  {
    "molecule": "CN1C(C(=O)Nc2ccc(F)c(Br)c2)CC(c2cccs2)NS1(=O)=O (racemic)",
    "observed_result": "< 1000 nM"
  },
  {
    "molecule": "CN1[C@@H](C(=O)Nc2ccc(F)c(Cl)c2)C[C@@H](c2ccc(F)cc2)NS1(=O)=O",
    "observed_result": "> 5000 nM"
  },
  {
    "molecule": "[2H]C1[C@]([2H])(c2ccc(-c3cn(C([2H])([2H])[2H])cn3)s2)NS(=O)(=O)N(C([2H])([2H])[2H])[C@]1([2H])C(=O)Nc1ccc(F)c(Cl)c1 (stereo in doubt)",
    "observed_result": "< 1000 nM"
  },
  {
    "molecule": "CN1[C@H](C(=O)Nc2ccc(F)c(Cl)c2)C[C@H](c2ccc(OCC(=O)O)cc2)NS1(=O)=O (relative stereo)",
    "observed_result": "1000 to 5000 nM"
  },
  {
    "molecule": "CN1[C@H](C(=O)Nc2ccc(F)c(Cl)c2)C[C@H](c2ccnn2C)NS1(=O)=O",
    "observed_result": "1000 to 5000 nM"
  },
  {
    "molecule": "CN1C(C(=O)Nc2ccc(F)c(Cl)c2)CC(c2ccc(-c3ccc(C(F)(F)F)nc3)s2)NS1(=O)=O (racemic)",
    "observed_result": "1000 to 5000 nM"
  },
  {
    "molecule": "Cc1c(-c2csc(C3CC(C(=O)Nc4ccc(F)c(Cl)c4)N(C)S(=O)(=O)N3)c2)cnn1C (centres unmarked)",
    "observed_result": "< 1000 nM"
  },
  {
    "molecule": "Cc1ccc([C@H]2C[C@@H](C(=O)Nc3ccc(F)c(Cl)c3)N(C)S(=O)(=O)N2)s1",
    "observed_result": "< 1000 nM"
  },
  {
    "molecule": "[2H]C1C([2H])(c2ccc(-c3cn(C([2H])([2H])[2H])cn3)s2)NS(=O)(=O)N(C([2H])([2H])[2H])C1([2H])C(=O)Nc1ccc(F)c(Cl)c1 (centres unmarked)",
    "observed_result": "< 1000 nM"
  },
  {
    "molecule": "CN1C(C(=O)Nc2ccc(F)c(Cl)c2)CC(c2cccc(F)c2)NS1(=O)=O (racemic)",
    "observed_result": "< 1000 nM"
  },
  {
    "molecule": "CN1[C@@H](C(=O)Nc2ccc(F)c(Cl)c2)C[C@@H](c2cnc(-c3ccccc3)s2)NS1(=O)=O",
    "observed_result": "> 5000 nM"
  }
]
